# system: cholecystokinin receptors (Cavia porcellus)
# Construct: Isolated, strip preparations were prepared from gall-bladders removed from male Dunkin-Hartley guinea-pigs; from tissue; host or cells: guinea-pig gall-bladder strips
# Sequence (Q63931 whole entry): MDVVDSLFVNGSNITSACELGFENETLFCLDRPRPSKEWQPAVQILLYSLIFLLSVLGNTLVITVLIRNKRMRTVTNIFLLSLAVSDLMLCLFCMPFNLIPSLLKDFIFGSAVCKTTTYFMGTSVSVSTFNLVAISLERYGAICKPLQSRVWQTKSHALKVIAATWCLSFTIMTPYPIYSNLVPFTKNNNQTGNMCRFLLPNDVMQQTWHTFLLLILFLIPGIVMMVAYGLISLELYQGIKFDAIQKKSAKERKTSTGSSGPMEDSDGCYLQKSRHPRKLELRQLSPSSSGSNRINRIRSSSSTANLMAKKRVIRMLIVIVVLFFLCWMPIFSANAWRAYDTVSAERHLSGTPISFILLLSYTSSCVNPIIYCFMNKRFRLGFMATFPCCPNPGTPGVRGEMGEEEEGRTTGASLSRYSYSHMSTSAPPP
# assayComment: CCK-antagonist activity in isolated guinea-pig gall-bladder strip preparations
# Format: cell-based
# testContext: guinea-pig gall-bladder strips; CCK-8 as agonist; test compound incubated for 60 minutes; standard errors less than 5%
# Procedure: The compounds of the invention were also assayed for CCK-antagonist activity as follows: Isolated, strip preparations were prepared from gall-bladders removed from male Dunkin-Hartley guinea-pigs (250-500 g body weight) according to the method of La Morte, W. W., et al., J.P.E.T., 217, (3), 638-644 (1981). The complete gall-bladder is removed and opened along the longitudinal axis. […] Responses are measured as changes in tension from that immediately prior to any drug addition. […]
Non-standard residues stand in square brackets, D forms with d. Residues, ends and D or L forms follow the SMILES beside them. *: point of attachment. Trp(5-F) = N[C@@H](Cc1c[nH]c2ccc(F)cc12)C(=O)O; 2Nal = N[C@@H](Cc1ccc2ccccc2c1)C(=O)O; Fmoc = O=C(OCC1c2ccccc2-c2ccccc21)*; Boc = CC(C)(C)OC(=O)*; For = O=C*
Record form. Attribute: Kb. Fill in for each entry.
Expressed in nM, but write only the number.

INPUT: Note Kb for the compound shown: CC(C)(C)OC(=O)N[C@@H](Cc1c[nH]c2ccc(F)cc12)C(=O)N[C@@H](Cc1ccc2ccccc2c1)C(=O)N[C@@H](CC(=O)O)C(=O)N[C@@H](Cc1ccccc1)C(N)=O [Example 18] (Boc-[Trp(5-F)][2Nal]DF-NH2)
OUTPUT: 631

INPUT: Note Kb for the compound shown: COc1ccc2[nH]cc(CC(NC(=O)OC(C)(C)C)C(=O)N[C@@H](Cc3ccc4ccccc4c3)C(=O)N[C@@H](CC(=O)O)C(=O)N[C@@H](Cc3ccccc3)C(N)=O)c2c1 (mixture of isomers)
OUTPUT: 501

INPUT: Note Kb for the compound shown: NC(=O)[C@H](Cc1ccccc1)NC(=O)[C@H](CC(=O)O)NC(=O)[C@H](Cc1ccc2ccccc2c1)NC(=O)[C@H](Cc1c[nH]c2ccccc12)NC=O [Example 15] (For-W[2Nal]DF-NH2)
OUTPUT: 631

INPUT: Note Kb for the compound shown: NC(=O)[C@H](Cc1ccccc1)NC(=O)[C@H](CC(=O)O)NC(=O)[C@H](Cc1ccc2ccccc2c1)NC(=O)[C@H](Cc1c[nH]c2ccccc12)NC(=O)OCC1c2ccccc2-c2ccccc21 [Example 16] (Fmoc-W[2Nal]DF-NH2)
OUTPUT: 2510

====

# system: gastrin receptor (Mus musculus)
# Construct: assayed for gastrin activity using the mouse stomach assay; from tissue; host or cells: isolated mouse stomach
# Sequence (P56481 whole entry): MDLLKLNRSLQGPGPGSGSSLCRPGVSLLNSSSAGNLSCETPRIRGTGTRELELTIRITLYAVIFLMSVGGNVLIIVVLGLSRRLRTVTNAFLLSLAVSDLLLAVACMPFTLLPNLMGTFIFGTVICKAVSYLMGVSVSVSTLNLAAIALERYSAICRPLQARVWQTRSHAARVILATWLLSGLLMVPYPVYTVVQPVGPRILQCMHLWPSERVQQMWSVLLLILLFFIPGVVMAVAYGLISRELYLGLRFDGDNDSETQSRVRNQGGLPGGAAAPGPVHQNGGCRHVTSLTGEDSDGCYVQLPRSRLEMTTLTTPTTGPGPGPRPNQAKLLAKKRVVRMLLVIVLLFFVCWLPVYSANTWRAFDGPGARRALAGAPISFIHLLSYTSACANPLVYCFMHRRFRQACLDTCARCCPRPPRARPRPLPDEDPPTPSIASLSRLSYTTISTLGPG
# assayComment: mouse stomach assay for gastrin activity (isolated stomach, acid secretion)
# Format: cell-based
# testContext: isolated mouse stomach assay, gastrin antagonism; standard errors less than 5%; read-out: pKB mouse stomach (converted)
Non-standard residues stand in square brackets, D forms with d. Residues, ends and D or L forms follow the SMILES beside them. *: point of attachment. Trp(5-F) = N[C@@H](Cc1c[nH]c2ccc(F)cc12)C(=O)O; 2Nal = N[C@@H](Cc1ccc2ccccc2c1)C(=O)O; d1Nal = N[C@H](Cc1cccc2ccccc12)C(=O)O; Fmoc = O=C(OCC1c2ccccc2-c2ccccc21)*; Boc = CC(C)(C)OC(=O)*
readoutKind: Kb

INPUT: Note Kb for the compound shown: CC(C)(C)OC(=O)N[C@@H](Cc1c[nH]c2ccccc12)C(=O)N[C@@H](Cc1ccc2ccccc2c1)C(=O)N[C@@H](CC(=O)O)C(=O)N[C@@H](Cc1ccccc1)C(N)=O [Example 1] (Boc-W[2Nal]DF-NH2)
OUTPUT: 631 nM

INPUT: Note Kb for the compound shown: COc1ccc2[nH]cc(CC(NC(=O)OC(C)(C)C)C(=O)N[C@@H](Cc3ccc4ccccc4c3)C(=O)N[C@@H](CC(=O)O)C(=O)N[C@@H](Cc3ccccc3)C(N)=O)c2c1 (mixture of isomers)
OUTPUT: 5010 nM

INPUT: Note Kb for the compound shown: CC(C)(C)OC(=O)N[C@@H](Cc1c[nH]c2ccccc12)C(=O)N[C@H](Cc1cccc2ccccc12)C(=O)N[C@@H](CC(=O)O)C(=O)N[C@@H](Cc1ccccc1)C(N)=O [Example 24] (Boc-W[d1Nal]DF-NH2)
OUTPUT: 251 nM

INPUT: Note Kb for the compound shown: CC(C)(C)OC(=O)N[C@@H](Cc1c[nH]c2ccc(F)cc12)C(=O)N[C@@H](Cc1ccc2ccccc2c1)C(=O)N[C@@H](CC(=O)O)C(=O)N[C@@H](Cc1ccccc1)C(N)=O [Example 18] (Boc-[Trp(5-F)][2Nal]DF-NH2)
OUTPUT: 1580 nM

INPUT: Note Kb for the compound shown: NC(=O)[C@H](Cc1ccccc1)NC(=O)[C@H](CC(=O)O)NC(=O)[C@H](Cc1ccc2ccccc2c1)NC(=O)[C@H](Cc1c[nH]c2ccccc12)NC(=O)OCC1c2ccccc2-c2ccccc21 [Example 16] (Fmoc-W[2Nal]DF-NH2)
OUTPUT: 2000 nM
